# tested-target: BRM (Homo sapiens)
# assay-text: ATPase catalytic activity assay (ADP-Glo), BRM
# applied-conditions: 30 nM BRM, 400 μM ATP
property-label: BRM Max % Inhibition (%)

Some solved cases for reference:
>>> print(df.to_string())
                                   compound  test_result
0  C[C@@]1(C#N)COCc2ccc(C(=O)NCc3cc4nc(N5CCN(C6CCC6)C5=O)ccc4cn3)cc21 [Compound 313]           92
1  C[C@@]1(C#N)COCc2ccc(C(=O)NCc3cc4c(cn3)CCN(c3cncc(N5CCOCC5)n3)C4)cc21 [Compound 314]           96
2  C[C@@]1(C#N)COCc2ccc(C(=O)NCc3cc(N4CCc5cc(C(F)F)ccc5C4)ccn3)cc21 [Compound 67]           97
3  COc1nn(C)cc1-c1ccc2cnc(CNC(=O)c3ccc4c(c3)[C@](C)(F)COC4)cc2n1 [Compound 343]          101
4  [2H]C1([2H])OC[C@@](C)(F)c2cc(C(=O)NCc3cc4nc(-c5cncc(C6CC6)n5)ccc4cn3)cnc21 [Compound 211]           97

[I] C[C@@]1(F)COCc2ccc(C(=O)NCc3cc4nc(-c5ccc(=O)n(CC(F)F)n5)ccc4cn3)cc21 [Compound 318]
[II] C[C@@]1(C#N)COCc2ccc(C(=O)NCc3cc(N4CC5(CN(c6ccccc6)C5)C4)ccn3)cc21 [Compound 10]
Consider entries I and II . Which has the numerically lower BRM Max % Inhibition? Indicate which entry you chose by stating its label.
II

---

# tested-target: BRM (Homo sapiens, UniProt P51531)
# Sequence (P51531 whole entry): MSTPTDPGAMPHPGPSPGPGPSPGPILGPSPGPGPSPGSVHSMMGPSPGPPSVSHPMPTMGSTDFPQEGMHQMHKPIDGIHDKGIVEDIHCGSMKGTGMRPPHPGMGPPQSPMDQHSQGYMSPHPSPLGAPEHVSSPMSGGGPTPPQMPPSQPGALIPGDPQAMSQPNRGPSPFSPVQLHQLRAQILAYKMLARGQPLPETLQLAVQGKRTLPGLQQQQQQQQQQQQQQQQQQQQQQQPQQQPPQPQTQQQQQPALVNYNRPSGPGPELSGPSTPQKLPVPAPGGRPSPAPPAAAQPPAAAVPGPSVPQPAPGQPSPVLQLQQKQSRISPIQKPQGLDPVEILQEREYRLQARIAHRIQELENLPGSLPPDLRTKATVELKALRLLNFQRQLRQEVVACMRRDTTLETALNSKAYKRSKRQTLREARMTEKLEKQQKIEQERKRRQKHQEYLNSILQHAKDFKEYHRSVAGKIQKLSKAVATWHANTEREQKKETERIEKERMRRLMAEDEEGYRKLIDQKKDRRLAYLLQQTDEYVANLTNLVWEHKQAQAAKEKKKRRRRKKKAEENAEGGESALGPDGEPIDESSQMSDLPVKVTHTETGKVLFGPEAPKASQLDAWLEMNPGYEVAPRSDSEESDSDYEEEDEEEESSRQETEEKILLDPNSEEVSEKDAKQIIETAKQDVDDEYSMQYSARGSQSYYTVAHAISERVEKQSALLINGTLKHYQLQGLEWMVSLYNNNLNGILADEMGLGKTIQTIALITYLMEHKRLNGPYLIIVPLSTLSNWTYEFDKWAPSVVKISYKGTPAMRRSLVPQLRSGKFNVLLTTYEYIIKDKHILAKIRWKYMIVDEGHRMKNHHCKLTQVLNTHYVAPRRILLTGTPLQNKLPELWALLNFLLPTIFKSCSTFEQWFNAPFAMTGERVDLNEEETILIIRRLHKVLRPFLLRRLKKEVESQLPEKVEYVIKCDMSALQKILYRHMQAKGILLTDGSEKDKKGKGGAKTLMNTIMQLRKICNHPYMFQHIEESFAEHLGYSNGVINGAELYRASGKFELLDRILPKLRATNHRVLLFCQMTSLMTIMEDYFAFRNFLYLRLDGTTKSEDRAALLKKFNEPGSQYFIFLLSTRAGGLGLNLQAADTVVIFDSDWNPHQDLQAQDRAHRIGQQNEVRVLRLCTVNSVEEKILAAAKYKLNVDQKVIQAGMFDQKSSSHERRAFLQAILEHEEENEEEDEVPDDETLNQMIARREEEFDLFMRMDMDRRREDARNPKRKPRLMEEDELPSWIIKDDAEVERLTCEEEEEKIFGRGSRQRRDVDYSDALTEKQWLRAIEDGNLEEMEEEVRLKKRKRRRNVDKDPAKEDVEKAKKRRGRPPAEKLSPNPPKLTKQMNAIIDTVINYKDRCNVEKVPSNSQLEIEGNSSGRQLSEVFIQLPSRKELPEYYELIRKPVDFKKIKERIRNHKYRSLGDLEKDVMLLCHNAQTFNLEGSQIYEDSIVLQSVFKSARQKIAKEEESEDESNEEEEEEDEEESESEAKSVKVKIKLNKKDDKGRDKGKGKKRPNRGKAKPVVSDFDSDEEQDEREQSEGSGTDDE
# assay-text: ATPase catalytic activity assay (ADP-Glo), BRM
# applied-conditions: 30 nM BRM, 400 μM ATP
property-label: BRM Max % Inhibition (%)

>>> print(df.to_string())
                                    compound                       tested_target  test_result
 0  C[C@@]1(C#N)COCc2ccc(C(=O)NCc3cc(N4CCC(O)(c5ccccc5)C4)ccn3)cc21 (stereo partly drawn)  BRM (Homo sapiens, UniProt P51531)           81
 1  COc1cncc(-c2nc3cc(CNC(=O)c4ccc5c(c4)[C@](C)(C#N)COC5)ncc3s2)n1  BRM (Homo sapiens, UniProt P51531)           94
 2  C[C@@]1(C#N)COCc2ccc(C(=O)NCc3cc(N4CCC5CCCCC5C4)ccn3)cc21 (stereo partly drawn)  BRM (Homo sapiens, UniProt P51531)           85
 3  C[C@@]1(C#N)COCc2ccc(C(=O)NCc3cc4c(cn3)CCN(c3ccc(=O)n(C5CC5)n3)C4)cc21  BRM (Homo sapiens, UniProt P51531)           97
 4  COc1cccc(C#Cc2ccnc(CNC(=O)c3ccc4c(c3)[C@](C)(C#N)COC4)c2)c1  BRM (Homo sapiens, UniProt P51531)           96
 5  COCCNC(=O)c1cccc(C#Cc2ccnc(CNC(=O)c3ccc4c(c3)[C@](C)(C#N)COC4)c2)c1  BRM (Homo sapiens, UniProt P51531)          101
 6  C[C@@]1(C#N)COCc2ccc(C(=O)NCc3cc(/C(F)=C/c4ccccc4)ccn3)cc21  BRM (Homo sapiens, UniProt P51531)           97
 7  COc1cc(-c2ccc3cnc(CNC(=O)c4ccc5c(c4)[C@](C)(C#N)COC5)cc3n2)nc(N2CCC2)n1  BRM (Homo sapiens, UniProt P51531)           96
 8  COc1nn(C)cc1-c1ccc2cnc(CNC(=O)c3ccc4c(c3)[C@](C)(C#N)COC4)cc2c1  BRM (Homo sapiens, UniProt P51531)          102
 9  COc1cc(F)cc2c1CCN(c1ccnc(CNC(=O)c3ccc4c(c3)[C@](C)(C#N)COC4)c1)C2  BRM (Homo sapiens, UniProt P51531)           99
10  CN1Cc2ccc(-c3ccc4cnc(CNC(=O)c5ccc6c(c5)[C@](C)(C#N)COC6)cc4n3)cc2C1=O  BRM (Homo sapiens, UniProt P51531)           93
11  COc1cccc2c1CCN(c1ccnc(CNC(=O)c3ccc4c(c3)[C@](C)(C#N)COC4)c1)C2  BRM (Homo sapiens, UniProt P51531)           98
12  C[C@@]1(C#N)COCc2ccc(C(=O)NCc3cc4c(cn3)CCN(c3ccccn3)C4)cc21  BRM (Homo sapiens, UniProt P51531)           85
13  C[C@@]1(C#N)COCc2ccc(C(=O)NCc3cc4nc(-c5cnccn5)ccc4cn3)cc21  BRM (Homo sapiens, UniProt P51531)           88
14  Cn1c(C(F)F)cc2c(-c3ccc4cnc(CNC(=O)c5ccc6c(c5)[C@](C)(C#N)COC6)cc4n3)cccc21  BRM (Homo sapiens, UniProt P51531)          100

---

# tested-target: BRM (Homo sapiens, UniProt P51531)
# assay-text: ATPase catalytic activity assay (ADP-Glo), BRM
# applied-conditions: BRM ATPase: IC50 (uM), 30 nM BRM, 400 μM ATP
property-label: IC50

                            chemical_smiles                       tested_target  property_label    test_result
0  C[C@@]1(C#N)COCc2ccc(C(=O)NCc3cc4c(nn3)CCN(c3cncc(N5CCC5)n3)C4)cc21  BRM (Homo sapiens, UniProt P51531)            IC50  0.1 to 0.5 µM

Query `COC(=O)c1cccc(C#Cc2ccnc(CNC(=O)c3ccc4c(c3)[C@](C)(C#N)CCN4)c2)c1` on BRM (Homo sapiens, UniProt P51531); IC50 returned: > 1 µM

Query `C[C@@]1(C#N)COCc2ccc(C(=O)NCc3cc4nc(-c5cccc6c5ccn6C5CC5)ccc4cn3)cc21` on BRM (Homo sapiens, UniProt P51531); IC50 returned: < 0.1 µM

Assay BRM (Homo sapiens, UniProt P51531), sample `COc1nn(C)cc1-c1cnc2cnc(CNC(=O)c3ccc4c(c3)[C@](C)(F)COC4)cc2c1` , IC50 read: 0.1 to 0.5 µM

---

# tested-target: BRG-1 (Homo sapiens)
# Sequence (P51532 whole entry): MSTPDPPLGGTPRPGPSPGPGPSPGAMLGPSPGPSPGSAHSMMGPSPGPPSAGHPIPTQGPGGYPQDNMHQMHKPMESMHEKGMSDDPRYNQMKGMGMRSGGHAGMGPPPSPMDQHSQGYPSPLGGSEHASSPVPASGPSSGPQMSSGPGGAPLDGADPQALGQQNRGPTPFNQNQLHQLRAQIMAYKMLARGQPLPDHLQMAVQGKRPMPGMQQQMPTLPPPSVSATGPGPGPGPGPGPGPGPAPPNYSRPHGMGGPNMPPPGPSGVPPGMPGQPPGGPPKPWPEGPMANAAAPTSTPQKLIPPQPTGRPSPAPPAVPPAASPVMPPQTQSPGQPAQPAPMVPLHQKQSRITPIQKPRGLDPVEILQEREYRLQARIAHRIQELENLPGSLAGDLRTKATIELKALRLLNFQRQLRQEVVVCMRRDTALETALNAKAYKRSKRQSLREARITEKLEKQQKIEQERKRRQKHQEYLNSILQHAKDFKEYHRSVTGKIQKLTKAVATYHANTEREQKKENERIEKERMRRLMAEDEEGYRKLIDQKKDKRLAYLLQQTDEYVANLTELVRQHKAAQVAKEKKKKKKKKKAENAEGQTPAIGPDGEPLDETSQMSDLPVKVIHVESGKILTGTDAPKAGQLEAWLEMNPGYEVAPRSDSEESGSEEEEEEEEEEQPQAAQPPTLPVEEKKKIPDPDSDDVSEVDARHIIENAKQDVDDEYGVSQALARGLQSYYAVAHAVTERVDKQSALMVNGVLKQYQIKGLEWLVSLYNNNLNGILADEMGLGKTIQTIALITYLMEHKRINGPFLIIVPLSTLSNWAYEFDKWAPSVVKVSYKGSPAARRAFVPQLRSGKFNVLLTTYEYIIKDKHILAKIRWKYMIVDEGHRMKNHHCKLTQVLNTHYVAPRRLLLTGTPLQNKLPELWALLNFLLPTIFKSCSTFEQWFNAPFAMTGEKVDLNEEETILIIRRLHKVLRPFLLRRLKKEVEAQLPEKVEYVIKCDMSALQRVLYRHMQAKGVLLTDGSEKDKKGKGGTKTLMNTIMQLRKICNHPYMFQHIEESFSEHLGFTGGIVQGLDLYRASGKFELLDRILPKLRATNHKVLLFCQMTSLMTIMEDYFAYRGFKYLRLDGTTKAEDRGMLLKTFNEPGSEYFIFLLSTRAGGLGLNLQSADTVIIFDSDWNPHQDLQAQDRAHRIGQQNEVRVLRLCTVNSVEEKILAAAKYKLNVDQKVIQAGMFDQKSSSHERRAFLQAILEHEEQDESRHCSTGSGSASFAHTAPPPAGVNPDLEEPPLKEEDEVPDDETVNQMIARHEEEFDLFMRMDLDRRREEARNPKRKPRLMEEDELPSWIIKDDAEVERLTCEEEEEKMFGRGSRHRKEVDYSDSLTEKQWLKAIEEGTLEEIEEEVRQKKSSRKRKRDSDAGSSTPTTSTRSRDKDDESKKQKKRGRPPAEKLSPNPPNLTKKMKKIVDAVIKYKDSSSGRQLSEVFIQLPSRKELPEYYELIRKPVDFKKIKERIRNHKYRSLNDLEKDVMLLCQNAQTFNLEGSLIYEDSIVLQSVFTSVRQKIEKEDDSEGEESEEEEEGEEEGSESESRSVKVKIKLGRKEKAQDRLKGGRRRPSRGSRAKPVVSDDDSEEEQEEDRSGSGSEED
# assay-text: ATPase catalytic activity assay (ADP-Glo), BRG-1
pIC50: −log10 of the molar value.
property-label: pIC50

                                   compound         tested_target  test_result
0  C[C@@]1(C#N)COCc2ccc(C(=O)NCc3cc(OCc4ccccn4)ccn3)cc21 [Compound 36]  BRG-1 (Homo sapiens)       < 6.00

The compound listed as C[C@@]1(C#N)COCc2ccc(C(=O)NCc3cc4nc(-c5cccc(C(=O)N6CCC6)c5)ccc4cn3)cc21 [Compound 484] shows pIC50 equal to 6.00 to 6.30

Short answer for COc1ccc(-c2ccc3cnc(CNC(=O)c4ccc5c(c4)[C@](C)(C#N)COC5)cc3n2)cc1 [Compound 108] : pIC50 was 6.00 to 6.30

Looking up COc1ccc([C@H]2C[C@H](c3ccnc(CNC(=O)c4ccc5c(c4)[C@](C)(C#N)COC5)c3)C2)cc1 [Compound 72] , I see its pIC50 listed as 6.30 to 7.00

Given item COc1cc(-c2ccc3cnc(CNC(=O)c4ccc5c(c4)[C@](C)(C#N)COC5)cc3n2)nc(N2CCC2)n1 [Compound 442] , the value recorded as its pIC50 is 6.00 to 6.30

Reported pIC50 ( CN(C)c1cccc(-c2ccc3nnc(CNC(=O)c4ccc5c(c4)[C@](C)(C#N)COC5)cc3n2)n1 [Compound 223] ) = > 7.00

compound O=C(NCc1cc2nc(-c3cncc(C4CC4)n3)ccc2cn1)c1cnc2c(c1)[C@](F)(C(F)F)CCO2 [Compound 241] , pIC50 observed: 6.00 to 6.30

---

# tested-target: UniProtKB P51532
# assay-text: ATPase catalytic activity assay (ADP-Glo), BRG-1
# applied-conditions: 1 h, read-out: BRG1 Max % Inhibition, ADP-Glo, 30 nM BRG-1, 400 μM ATP
property-label: Emax (%)

In [3]: df
Out[3]:
                                   molecule     tested_target  measure_unit  test_result
0  CNC(=O)c1cccc(-c2ccc3cnc(CNC(=O)c4ccc5c(c4)[C@](C)(C#N)COC5)cc3n2)c1 [Compound 483]  UniProtKB P51532             %           72

[a] CN1C[C@@](C)(C#N)c2cc(C(=O)NCc3cc4nc(-c5ccccc5)ccc4cn3)ccc21 [Compound 96]
[b] C[C@@]1(C#N)COCc2ccc(C(=O)NCc3cc4c(cn3)CCN(c3ccnc(N5CCC5)c3F)C4)cc21 [Compound 258]
Lowest Emax? choose a or b Record your answer as the label of the chosen record.
a
(a: 20%, b: 75%)
